target-under-test: Integrin alpha-IIb/beta-3 (Homo sapiens, UniProt P08514+P05106)
Sequence (P05106 27-788 limits assumed): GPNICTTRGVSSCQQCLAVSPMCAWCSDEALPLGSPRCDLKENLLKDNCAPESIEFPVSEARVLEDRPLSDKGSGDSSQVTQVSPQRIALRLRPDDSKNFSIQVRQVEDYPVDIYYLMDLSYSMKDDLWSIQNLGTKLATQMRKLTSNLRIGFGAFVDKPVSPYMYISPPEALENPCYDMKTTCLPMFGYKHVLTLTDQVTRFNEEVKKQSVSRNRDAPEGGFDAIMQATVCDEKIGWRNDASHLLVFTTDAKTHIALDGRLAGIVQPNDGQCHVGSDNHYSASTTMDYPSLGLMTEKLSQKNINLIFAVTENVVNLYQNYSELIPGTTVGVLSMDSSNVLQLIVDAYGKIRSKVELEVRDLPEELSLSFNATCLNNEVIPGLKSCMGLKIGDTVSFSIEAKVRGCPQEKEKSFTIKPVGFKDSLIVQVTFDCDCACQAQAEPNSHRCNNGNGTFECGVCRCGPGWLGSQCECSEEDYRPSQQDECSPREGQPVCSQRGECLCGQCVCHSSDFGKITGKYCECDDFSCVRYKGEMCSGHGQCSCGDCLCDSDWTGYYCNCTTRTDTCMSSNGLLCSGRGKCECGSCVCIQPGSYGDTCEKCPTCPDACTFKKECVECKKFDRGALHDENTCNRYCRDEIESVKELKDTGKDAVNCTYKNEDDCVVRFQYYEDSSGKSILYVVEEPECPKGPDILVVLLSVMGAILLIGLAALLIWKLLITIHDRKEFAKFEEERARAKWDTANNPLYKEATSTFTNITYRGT
Sequence (P08514 32-887 limits assumed): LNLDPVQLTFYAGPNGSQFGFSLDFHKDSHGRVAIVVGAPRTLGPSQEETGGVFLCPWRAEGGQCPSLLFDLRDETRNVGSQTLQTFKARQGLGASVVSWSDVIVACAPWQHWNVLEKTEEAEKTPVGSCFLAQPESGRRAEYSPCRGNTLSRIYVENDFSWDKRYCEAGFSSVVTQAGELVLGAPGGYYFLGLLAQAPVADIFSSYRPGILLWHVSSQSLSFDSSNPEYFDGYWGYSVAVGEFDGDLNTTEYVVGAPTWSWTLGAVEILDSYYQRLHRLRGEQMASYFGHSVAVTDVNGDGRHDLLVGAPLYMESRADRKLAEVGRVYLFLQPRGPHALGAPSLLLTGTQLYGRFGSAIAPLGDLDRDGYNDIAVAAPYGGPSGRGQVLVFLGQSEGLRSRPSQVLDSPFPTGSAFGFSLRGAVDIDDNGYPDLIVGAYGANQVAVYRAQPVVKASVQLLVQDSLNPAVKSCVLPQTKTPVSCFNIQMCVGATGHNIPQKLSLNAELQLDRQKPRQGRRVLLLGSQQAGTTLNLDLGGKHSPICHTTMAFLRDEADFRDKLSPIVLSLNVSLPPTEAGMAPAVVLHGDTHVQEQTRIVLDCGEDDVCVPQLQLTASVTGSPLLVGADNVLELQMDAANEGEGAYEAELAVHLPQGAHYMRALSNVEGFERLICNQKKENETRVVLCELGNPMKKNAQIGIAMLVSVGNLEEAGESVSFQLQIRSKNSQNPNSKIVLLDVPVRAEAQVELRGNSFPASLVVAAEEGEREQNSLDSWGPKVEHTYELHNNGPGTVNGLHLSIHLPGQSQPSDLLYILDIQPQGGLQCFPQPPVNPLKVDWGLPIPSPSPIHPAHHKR
Sequence (P08514 891-1039 limits assumed): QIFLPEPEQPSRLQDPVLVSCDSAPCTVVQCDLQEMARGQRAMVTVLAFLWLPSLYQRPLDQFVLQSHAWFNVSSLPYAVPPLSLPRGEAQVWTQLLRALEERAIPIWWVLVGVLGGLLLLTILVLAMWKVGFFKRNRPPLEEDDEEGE
procedure-details: Concentration required to inhibit adenosine diphosphate (ADP) induced aggregation of human platelets by 50% in vitro.
pIC50: −log10 of the molar value.
recorded-metric: pIC50

The cases that follow already have their pIC50 on record.
>  <line-notation>
N=C(N)c1ccc(C(=O)NCC(=O)N2CCN(CCC(=O)O)C(=O)[C@@H]2CC(=O)O)cc1

>  <measured-value>
4.52

$$$$
>  <line-notation>
N=C(N)c1ccc(C(=O)NCC(=O)N2CCN(CC(=O)O)C(=O)[C@@H]2Cc2ccccc2)cc1

>  <measured-value>
6.96

$$$$
>  <line-notation>
NCCc1ccc(C(=O)NCC(=O)N2CCN(CC(=O)O)C(=O)[C@@H]2CC(=O)O)cc1

>  <measured-value>
6.89

$$$$
>  <line-notation>
CN(C)CCc1ccc(C(=O)NCC(=O)N2CCN(CC(=O)O)C(=O)[C@@H]2CCC(=O)O)cc1

>  <measured-value>
5.60

$$$$
>  <line-notation>
CN(C)C(N)=Nc1ccc(C(=O)NCC(=O)N2CCN(CC(=O)O)C(=O)[C@@H]2CC(=O)O)cc1

>  <measured-value>
4.96

$$$$
>  <line-notation>
COC(=O)C[C@H]1C(=O)N(CC(=O)O)CCN1C(=O)CNC(=O)c1ccc(CCN)cc1

>  <measured-value>
7.11

$$$$
>  <line-notation>
N=C(N)c1ccc(C(=O)NCC(=O)N2CCN([C@@H](Cc3ccccc3)C(=O)O)C(=O)[C@@H]2CC(=O)O)cc1

>  <measured-value>
5.39

$$$$
>  <line-notation>
NCCc1ccc(C(=O)NCC(=O)N2CCN(CC(=O)O)C(=O)[C@@H]2CCC(=O)O)cc1

>  <measured-value>
6.96

$$$$

P. N=C(N)NCc1ccc(C(=O)NCC(=O)N2CCN(CC(=O)O)C(=O)[C@@H]2CC(=O)O)cc1
Q. N=C(N)c1ccc(C(=O)NCC(=O)N2CCN(CC(=O)O)C(=O)[C@@H]2CC(=O)O)cc1
R. C[C@@H](C(=O)O)N1CCN(C(=O)CNC(=O)c2ccc(C(=N)N)cc2)[C@@H](CC(=O)O)C1=O
*Q* Order the records so the highest pIC50 appears first and the lowest last. Use the labels to give the requested order.
*A* Q, P, R

----------
target-under-test: Integrin alpha-IIb/beta-3 (Homo sapiens, UniProt P08514+P05106)
procedure-details: Concentration required to inhibit adenosine diphosphate (ADP) induced aggregation of human platelets by 50% in vitro.
pIC50: −log10 of the molar value.
recorded-metric: pIC50

The cases that follow already have their pIC50 on record.
>  <molecule>
N=C(N)c1ccc(CC(=O)NCC(=O)N2CCN(CC(=O)O)C(=O)[C@@H]2CC(=O)O)cc1

>  <recorded-metric>
pIC50

>  <measured-value>
5.92

$$$$
>  <molecule>
N=C(N)NCCCCC(=O)NCC(=O)N1CCN(CC(=O)O)C(=O)[C@@H]1CC(=O)O

>  <recorded-metric>
pIC50

>  <measured-value>
5.44

$$$$
>  <molecule>
NC(N)=Nc1ccc(C(=O)NCC(=O)N2CCN(CC(=O)O)C(=O)[C@@H]2CC(=O)O)cc1

>  <recorded-metric>
pIC50

>  <measured-value>
6.46

$$$$
>  <molecule>
N=C(N)c1ccc(C(=O)NCC(=O)N2CCN(CC(=O)O)C(=O)[C@@H]2CCC(=O)O)cc1

>  <recorded-metric>
pIC50

>  <measured-value>
7.28

$$$$
>  <molecule>
N=C(N)c1ccc(C(=O)NCC(=O)N2CCN(CC(=O)O)C(=O)[C@@H]2CC(N)=O)cc1

>  <recorded-metric>
pIC50

>  <measured-value>
6.13

$$$$
>  <molecule>
N=C(N)c1cccc(C(=O)NCC(=O)N2CCN(CC(=O)O)C(=O)[C@@H]2CC(=O)O)c1

>  <recorded-metric>
pIC50

>  <measured-value>
4.89

$$$$
>  <molecule>
N=C(N)c1ccc(C(=O)NCC(=O)N2CCN(CC(=O)O)C(=O)C2)cc1

>  <recorded-metric>
pIC50

>  <measured-value>
7.03

$$$$
>  <molecule>
NCCc1ccc(C(=O)NCC(=O)N2CCN(CC(=O)O)C(=O)C2)cc1

>  <recorded-metric>
pIC50

>  <measured-value>
6.82

$$$$

I. COC(=O)CC[C@H]1C(=O)N(CC(=O)O)CCN1C(=O)CNC(=O)c1ccc(CCN(C)C)cc1
II. NCCCc1ccc(C(=O)NCC(=O)N2CCN(CC(=O)O)C(=O)[C@@H]2CC(=O)O)cc1
*Q* For the two items I and II , which reports the higher pIC50 value? Returns: label corresponding to the selected item.
*A* II
(II: 5.99, I: 5.64)
